# Study target: recombinant human Mcl-1 (residues 171-327) / Bim interaction (Homo sapiens (Human))
# Procedure text: biochemical
# Assay type: binding
# Reported conditions: 0.1 nM Mcl-1(171-327), 0.05 nM biotin-Bim (51-76); read-out: Mcl-1 HTRF IC50
Measure name: IC50

Observed IC50, recombinant human Mcl-1 (residues 171-327) / Bim interaction (Homo sapiens (Human)), CO[C@@]1(CN2CCN3CCN(C(C)C)C[C@@H]3C2)/C=C/C[C@H](C)[C@@H](C)S(=O)(=O)NC(=O)c2ccc3c(c2)N(C[C@@H]2CC[C@H]21)C[C@@]1(CCCc2cc(Cl)ccc21)CO3 (single isomer, unassigned) [Example 240] : 0.128 nM

Observed IC50, recombinant human Mcl-1 (residues 171-327) / Bim interaction (Homo sapiens (Human)), `COCCN1[C@H](C)CN(C[C@]2(OC)/C=C/C[C@H](C)[C@@H](C)S(=O)(=O)NC(=O)c3ccc4c(c3)N(C[C@@H]3CC[C@H]32)C[C@@]2(CCCc3cc(Cl)ccc32)CO4)C[C@@H]1C` : 0.136 nM

Observed IC50, recombinant human Mcl-1 (residues 171-327) / Bim interaction (Homo sapiens (Human)), `CO[C@@]1(CN2CCN(c3cncnc3)CC2)/C=C/C[C@H](C)[C@@H](C)S(=O)(=O)NC(=O)c2ccc3c(c2)N(C[C@@H]2CC[C@H]21)C[C@@]1(CCCc2cc(Cl)ccc21)CO3` : 0.33 nM

Observed IC50, recombinant human Mcl-1 (residues 171-327) / Bim interaction (Homo sapiens (Human)), `CO[C@@]1(CN2CCN3CCCC[C@@H]3C2)/C=C/[C@H](C)[C@H](C)CS(=O)(=O)NC(=O)c2ccc3c(c2)N(C[C@@H]2CC[C@H]21)C[C@@]1(CCCc2cc(Cl)ccc21)CO3` : 0.179 nM

====

For each of the compounds below, state its pIC50.
# Study target: recombinant human Mcl-1 (residues 171-327) / Bim interaction (Homo sapiens (Human), UniProt Q07820)
# Sequence (Q07820 171-327): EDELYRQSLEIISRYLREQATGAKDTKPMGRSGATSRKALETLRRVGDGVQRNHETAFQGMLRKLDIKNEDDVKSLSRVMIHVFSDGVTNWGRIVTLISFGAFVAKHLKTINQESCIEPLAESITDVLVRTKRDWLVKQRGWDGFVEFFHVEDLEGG
# Procedure text: biochemical
# Type: binding
# Reported conditions: TR-FRET, Mcl-1(171-327) / biotin-Bim (51-76); read-out: Mcl-1 HTRF IC50
Answer as the number alone; pIC50 is minus log10 of concentration in mol/L.

In plain terms, CO[C@@]1(C[C@@H](O)C2CC2)/C=C/C[C@H](C)[C@@H](C)S(=O)(=O)NC(=O)c2ccc3c(c2)N(C[C@@H]2CC[C@H]21)C[C@@]1(CCCc2cc(Cl)ccc21)CO3 (racemic) [Example 100437] has a documented pIC50 of 10.14

In plain terms, C[C@@H]1[C@@H](C)C/C=C/[C@](C)(OCCN2CC(F)(F)C2)[C@@H]2CC[C@H]2CN2C[C@@]3(CCCc4cc(Cl)ccc43)COc3ccc(cc32)C(=O)NS1(=O)=O [Example 100484] has a documented pIC50 of 8.41

In plain terms, CO[C@@]1(CC(=O)N(C)C2CCC2)/C=C/C[C@H](C)[C@@H](C)S(=O)(=O)NC(=O)c2ccc3c(c2)N(C[C@@H]2CC[C@H]21)C[C@@]1(CCCc2cc(Cl)ccc21)CO3 [Example 100450] has a documented pIC50 of 9.47

In plain terms, COCCC#C[C@]1(OC)/C=C/C[C@H](C)[C@@H](C)S(=O)(=O)NC(=O)c2ccc3c(c2)N(C[C@@H]2CC[C@H]21)C[C@@]1(CCCc2cc(Cl)ccc21)CO3 [Example 100423] has a documented pIC50 of 10.25

In plain terms, C[C@@H]1[C@@H](C)C/C=C/[C@@](O)(C#CCN2CCOCC2)[C@@H]2CC[C@H]2CN2C[C@@]3(CCCc4cc(Cl)ccc43)COc3ccc(cc32)C(=O)NS1(=O)=O (single isomer, unassigned) [Example 100018] has a documented pIC50 of 10.21

In plain terms, CO[C@@]1(CC(=O)N2CCN(C)CC2)/C=C/C[C@H](C)[C@@H](C)S(=O)(=O)NC(=O)c2ccc3c(c2)N(C[C@@H]2CC[C@H]21)C[C@@]1(CCCc2cc(Cl)ccc21)CO3 [Example 100376] has a documented pIC50 of 9.82

In plain terms, C[C@@H]1[C@@H](C)C/C=C/[C@@](O)(C#CCN2CCCCC2)[C@@H]2CC[C@H]2CN2C[C@@]3(CCCc4cc(Cl)ccc43)COc3ccc(cc32)C(=O)NS1(=O)=O [Example 100421] has a documented pIC50 of 8.41
